# Test system: HCC-2998 colon
# Assay Protocol: NCI-60 one-dose screen, 48 h (100 = growth as untreated, 0 = no growth, -100 = all killed)
# Condition Summary: 10 µM unless noted
The panel holds about 83,000 compounds, 20% with a hit somewhere; the sample as a whole holds those more often. Activity calls are given as the source filed them. The calls were made as follows: active = growth percent below 10; inactive = the rest.
Experimental Readout: growth

Here are 6 compounds together with their reported answers.
| Compound | Tested On | growth |
| --- | --- | --- |
| CC(C)CC(NC(=O)CN(Cc1ccccc1)S(C)(=O)=O)C(=O)O (configuration not stated) | HCC-2998 colon | 95% (inactive) |
| CC(=O)c1ccc(NCC(=O)Nc2ccccn2)cc1 | HCC-2998 colon | 110% (inactive) |
| CN1CCN(CC(=O)Nc2nc(-c3cccc(NS(=O)(=O)c4cccc5c(N(C)C)cccc45)c3)cs2)CC1 | HCC-2998 colon | 53.6% (inactive) |
| O=C(Nc1ccc(Cl)cc1)Nc1ccc(Cl)c(C(F)(F)F)c1 | HCC-2998 colon | -34.8% (active) |
| NS(=O)(=O)c1cnccc1Oc1cccc2cccnc12 | HCC-2998 colon | 95.9% (inactive) |
| COc1ccc(/C=N/C2=C(C#N)C(c3ccc(OC)cc3)c3ccc4ccccc4c3O2)cc1 (configuration not stated) | HCC-2998 colon | 97.4% (inactive) |

Shifting focus to the compound that follows.
Inquiry: Given Clc1ccc(-c2c3ccc(=[N+]4CCCCC4)cc-3oc3cc(N4CCCCC4)ccc23)cc1 , state its recorded growth.
Reply text: -95.6% (active)

###

# System: M14 melanoma
# Assay Protocol: NCI-60 one-dose screen, 48 h
# Condition Summary: 10 µM unless noted
This is part of a sample that, as a whole, favours compounds with a hit. Of some 83,000 tested, about 20% had one in any assay. Active and inactive are the calls of the source. Rule for the calls: active = growth percent below 10; inactive = the rest.
Tick one outcome: 1 for active, 0 for inactive

| Compound | Discrete Label |
| --- | --- |
| CCN1C(=O)N(CC)C2Nn3c(s/c(=C\c4ccc(Cl)cc4Cl)c3=O)=NC21 (configuration not stated) | 0 |

Inquiry: What call does the record list for Cc1nc2ccccc2c(/C=C/c2ccc(Cl)cc2)c1C(=O)/C=C/c1ccc(F)cc1 ?
Reply text: 1

Inquiry: What call does the record list for C[C@@]1(CCC#N)[C@H]2CC[C@@H]3[C@H]4[C@H](C(=O)/C=C/c5cccnc5)CC[C@]4(C#N)CC[C@@]3(C)[C@]2(C)CC[C@H]1C(=O)/C=C/c1cccnc1 ?
Reply text: 0

Inquiry: What call does the record list for COc1ccc(-c2nc3c(N)c(CO)c(C)nc3o2)cc1 ?
Reply text: 0

###

# Tested on: KM12 colon
# Assay Protocol: NCI-60 one-dose screen, 48 h (100 = growth as untreated, 0 = no growth, -100 = all killed)
# Condition Summary: 10 µM unless noted
This is part of a sample that, as a whole, favours compounds with a hit. Of some 83,000 tested, about 20% had one in any assay.
Below, each of the compounds is paired with its reported growth value.
Your answer is read as %, so omit the unit and give the number.

Here are 3 compounds together with their reported answers.
| Compound | Units Of Measure | growth |
| --- | --- | --- |
| NS(=O)(=O)c1cnccc1Sc1ccncc1S(N)(=O)=O | % | 108 |
| CC(C)(C)c1ccc(/C=C/C(=O)Nc2ccc(O)cc2)cc1 | % | 36.5 |
| O=C(O)c1ccc2c(c1)CCC2 | % | 113 |

Inquiry: Given CCN(CC)CCN1CC(O)=C(c2nc(-c3ccc(Cl)cc3)cs2)C1=N , state its recorded growth.
Reply text: 33.7

Inquiry: Given CC1(C)CC(=O)CC2(C1)N=C(N)Nc1nc3ccccc3n12 (configuration not stated) , state its recorded growth.
Reply text: 108

Inquiry: Given CCc1c2c(nc3ccc(OC(=O)NCc4ccc(B5OC(C)(C)C(C)(C)O5)cc4)cc13)-c1cc3c(c(=O)n1C2)COC(=O)[C@]3(O)CC , state its recorded growth.
Reply text: -5.38

Inquiry: Given Cc1ccc(/C=C2\C(=O)N(C)c3ccc(S(=O)(=O)Nc4ccc(C(C)(C)C)cc4)cc32)s1 , state its recorded growth.
Reply text: 59.9

Inquiry: Given CCCCCCCCn1ccc2cc(NC(=O)Cn3cc(CN4CCCC4)nn3)ccc21 , state its recorded growth.
Reply text: 41.8

Inquiry: Given C=C1C(=O)O[C@H]2[C@H]1CC/C(COC(=O)C(=O)c1c[nH]c3ccccc13)=C\CC[C@@]1(C)O[C@@H]21 , state its recorded growth.
Reply text: -56.5

Inquiry: Given COc1cc(/C=C/C(=O)c2cccc(-n3cc(-c4ccccc4)[nH]c3=O)c2)ccc1O , state its recorded growth.
Reply text: 15

Inquiry: Given O=c1ssc(Cl)c1-c1ccccc1 , state its recorded growth.
Reply text: 113

Inquiry: Given COc1ccc(C2C(c3nn[nH]n3)=C(N)Oc3c2ccc2ccccc32)cc1 (configuration not stated) , state its recorded growth.
Reply text: 50.2

###

Below, each of the molecules is paired with its reported growth value.
# System: TK-10 renal
# Assay Protocol: NCI-60 one-dose screen, 48 h (100 = growth as untreated, 0 = no growth, -100 = all killed)
# Condition Summary: 10 µM unless noted
About 83,000 compounds went through this panel and 20% of them were active in at least one assay; those are over-represented in the sample as a whole.
Your answer is read as %, so omit the unit and give the number.

Here are 8 molecules together with their reported answers.
| Molecule | Tested On | Units Of Measure | Quantitative Readout |
| --- | --- | --- | --- |
| C[n+]1cccc(CC(=O)NO)c1 | TK-10 renal | % | 94.8 |
| CC/C=C\C/C=C\C[C@H](O)C/C=C1/C(=O)C=C[C@@H]1C/C=C\CCCC(=O)O | TK-10 renal | % | 79 |
| O=C(Nc1cccc(Cl)c1)c1cc(N=Nc2ccc([N+](=O)[O-])cc2Cl)ccc1O | TK-10 renal | % | 136 |
| CS(=O)c1cccc(-c2ccc3nc(N)n(-c4ccc(C(F)(F)F)cc4)c(=O)c3c2)c1 (configuration not stated) | TK-10 renal | % | 94.7 |
| O=C(/C=C/c1c(Cl)nc2sccn12)c1ccc(F)c(F)c1 | TK-10 renal | % | 91.6 |
| N#Cc1c(-c2ccccc2)cc(-c2ccc(Nc3nc(Nc4ccc(F)cc4)nc(Nc4ccc(F)cc4)n3)cc2)nc1N | TK-10 renal | % | 94 |
| Cc1ccc2nc(NC(=O)CSc3nc(Nc4ccc([N+](=O)[O-])cc4)c(C#N)c(-c4ccccc4)n3)sc2c1 | TK-10 renal | % | 101 |
| O=Cc1ccc(O)c2ncccc12 | TK-10 renal | % | 94 |

Inquiry: Find the measured growth: item Cc1cc(NCc2cc(Nc3ccnc4cc(Cl)ccc34)ccc2F)nc(Cl)n1 , target or system TK-10 renal.
Reply text: 38.1

Inquiry: Find the measured growth: item Cc1ccc(/C=C2\C(=O)N(C)c3ccc(S(=O)(=O)Nc4ccc(C(C)(C)C)cc4)cc32)s1 , target or system TK-10 renal.
Reply text: 70.2

Inquiry: Find the measured growth: item Cn1c(-c2c(N)n(Cc3ccc(C(F)(F)F)cc3)c3nc(C#N)c(C#N)nc23)nc2ccccc21 , target or system TK-10 renal.
Reply text: -12.9

###

# Test system: SN12C renal
# Assay Protocol: NCI-60 one-dose screen, 48 h (100 = growth as untreated, 0 = no growth, -100 = all killed)
# Condition Summary: 10 µM unless noted
The panel holds about 83,000 compounds, 20% with a hit somewhere; the sample as a whole holds those more often.
Experimental Readout: growth (%)
Your answer is read as %, so omit the unit and give the number.

Here are 3 molecules together with their reported answers.
| Molecule | Tested On | Units Of Measure | growth |
| --- | --- | --- | --- |
| CCN(CC)CCCNc1ccc(Nc2ccc(OC)cc2)cc1 | SN12C renal | % | 92.3 |
| COc1cccc(-c2nn(-c3ccccc3)cc2-c2ccnc(NCCNC(=O)Nc3cccc(C(F)(F)F)c3)c2)c1 | SN12C renal | % | 28.4 |
| O=S(=O)(Nc1cccc(Cl)c1)c1ccc(-c2cnc(C3CC3)o2)cc1 | SN12C renal | % | 39.7 |

Inquiry: Given COc1ccc(C(=NN=C(N)N)c2ccc(OC)cc2)cc1 , state its recorded growth.
Reply text: 49.9

Inquiry: Given N[C@@H](CCCCNCC(=O)O)C(=O)O , state its recorded growth.
Reply text: 101

Inquiry: Given CC(C)CC(NC(=O)CN(Cc1ccccc1)S(C)(=O)=O)C(=O)O (centres undefined) , state its recorded growth.
Reply text: 108

Inquiry: Given O=C(CSc1nccc(Nc2ccc(S(=O)(=O)Nc3nccs3)cc2)n1)c1ccc(F)cc1 , state its recorded growth.
Reply text: 110

Inquiry: Given COc1ccc(-c2nc3sccn3c2-c2cc(-c3cc(OC)c(OC)c(OC)c3)on2)cc1 , state its recorded growth.
Reply text: 105

Inquiry: Given COc1cc(CCC[P+](c2ccccc2)(c2ccccc2)c2ccccc2)cc2c1OCO2 , state its recorded growth.
Reply text: 35.9
